measurement.description: physchem
settings: pH 5.66, aqueous buffer
property.measured: solubility

Recorded result, Nc1nnc(-c2cccc(Cl)c2Cl)c(N)n1 [Lamotrigine] , solubility: 226 µg/mL

====

measurement.description: physchem
settings: pH 4.36, aqueous buffer
property.measured: solubility (µg/mL)
Your answer is read as µg/mL, so omit the unit and give the number.

Record summary for Nc1nnc(-c2cccc(Cl)c2Cl)c(N)n1 : reported solubility = 1610

====

measurement.description: Solubilities of weakly basic drugs in organic acid buffers
settings: pH 4.33, aqueous buffer, Solubility of Ondansetron Hydrochloride, fumaric acid 0.0025 mg/mL; start pH 4.15, end pH 4.33
property.measured: solubility

solubility reading for Cc1nccn1CC1CCc2c(c3ccccc3n2C)C1=O.Cl.O.O (racemic) [Ondansetron Hydrochloride] : 26.1 mg/mL
